Target: T1, cyno PD-L1 (cyno)
T1 construct: Soluble analyte in BLI
Assay: BLI (Octet), antibody on AHC biosensor, cyno PD-L1 as analyte
Measure: pKd
The meaning of pKd here: minus log10 of the concentration in molar units.

antibody A4 (antibody, V domains shown, Tested as full-length mAb made in CHO cells; also called L4H4) VH: QVQLVESGGGVVQPGRSLRLSCAASGFTFSNYGMHWVRQAPGKGLEWVAVIWFDGNTKYYTDSVKGRFTISRDNSKNTLYLQMNSLRAEDTAVYYCARDITMVPMDVWGQGTTVTVSS VL: AIQMTQSPSSLSASVGDRVTITCRASQDIRNDLGWYQQQPGKAPKLLIYAASSLQSGVPSRFSGSGSGTDFTLTISSLQPEDFATYYCLQDYNYPPTFGQGTKVEIK; 7.95
antibody A5 (antibody, V domains shown, Tested as full-length mAb made in CHO cells; also called L5H5) VH: QVQLVESGGGVVQPGRSLRLSCAASGFAFSSYGMHWVRQAPGKGLEWVALIWFDGNNKFYADSVKGRFTISRDNSKNTLYLQMNSLRAEDTAVYYCARDTTAASFDYWGQGTLVTVSS VL: EIVMTQSPATLSLSPGERATLSCRASQSVSSTYLSWYQQKPGQAPRLLIFGASTRATGIPARFSGSGSGTDFTLTISSLQPEDFAVYYCQQDYNLPPTFGPGTKVDIK; 8.07

Report pKd for antibody A9 (antibody, V domains shown, Tested as full-length mAb made in CHO cells; also called L9H9) VH: QVQLVESGGGVVQPGRSLRLSCAASGFTFSSYGMHWVRQAPGKGLEWVAVIWFDGNNKYYADSVKGRFTISRDNSKNTLYLQMNSLRAEDTAVYYCARDVTTVPFDYWGQGTLVTVSS VL: EIVMTQSPATLSLSPGERATLSCRASQSVSSSYLSWYQQKPGQAPRLLMYGASTRATGIPARFSGSGSGTDFTLTISSLQPEDFAVYYCQQDYNLPYTFGQGTKLEIK please.
7.68
